# Measurement target: Gadd45β/MKK7 interaction (Homo sapiens)
# Construct: The GST-fused full-length kinase was coated for 16 h at 4° C., at a concentration of 42 nM; made in house
# Sequence (O14733 1-419): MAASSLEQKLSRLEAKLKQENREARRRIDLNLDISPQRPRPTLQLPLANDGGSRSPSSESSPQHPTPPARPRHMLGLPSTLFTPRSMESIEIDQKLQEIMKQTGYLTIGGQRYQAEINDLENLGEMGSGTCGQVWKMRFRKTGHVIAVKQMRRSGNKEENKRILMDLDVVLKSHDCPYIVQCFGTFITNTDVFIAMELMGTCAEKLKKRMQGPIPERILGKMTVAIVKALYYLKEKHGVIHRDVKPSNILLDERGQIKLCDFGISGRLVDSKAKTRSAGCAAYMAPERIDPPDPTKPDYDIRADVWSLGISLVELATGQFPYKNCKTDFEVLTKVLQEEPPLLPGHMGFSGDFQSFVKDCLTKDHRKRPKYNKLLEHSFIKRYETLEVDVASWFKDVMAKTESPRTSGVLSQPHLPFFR
# Experimental protocol: ELISA competition assay of biotin-hGadd45β binding to coated GST-MKK7
# Condition: Table I, initial Elisa screening; coated MKK7 42 nM, biotin-hGadd45β 21 nM; competitor 21 nM, sub-libraries 42 nM
* marks the point of attachment. Fmoc = O=C(OCC1c2ccccc2-c2ccccc21)*; βAla = NCCC(=O)O
Recorded metric: % Inhibition of Gadd45β-MKK7 binding
Respond with the figure and its unit, in that order.

Substance	Measurement target	Recorded metric	Result
Fmoc(βAla)2-YDHY-NH2 ({Fmoc-βAla-βAla}-YDHY-NH2; SMILES NC(=O)[C@H](Cc1ccc(O)cc1)NC(=O)[C@H](Cc1c[nH]cn1)NC(=O)[C@H](CC(=O)O)NC(=O)[C@H](Cc1ccc(O)cc1)NC(=O)CCNC(=O)CCNC(=O)OCC1c2ccccc2-c2ccccc21)	Gadd45β/MKK7 interaction (Homo sapiens)	% Inhibition of Gadd45β-MKK7 binding	63%
Fmoc(βAla)2-YDHL-NH2 ({Fmoc-βAla-βAla}-YDHL-NH2; SMILES CC(C)C[C@H](NC(=O)[C@H](Cc1c[nH]cn1)NC(=O)[C@H](CC(=O)O)NC(=O)[C@H](Cc1ccc(O)cc1)NC(=O)CCNC(=O)CCNC(=O)OCC1c2ccccc2-c2ccccc21)C(N)=O)	Gadd45β/MKK7 interaction (Homo sapiens)	% Inhibition of Gadd45β-MKK7 binding	33%
Fmoc(βAla)2-YDHC-NH2 ({Fmoc-βAla-βAla}-YDHC-NH2; SMILES NC(=O)[C@H](CS)NC(=O)[C@H](Cc1c[nH]cn1)NC(=O)[C@H](CC(=O)O)NC(=O)[C@H](Cc1ccc(O)cc1)NC(=O)CCNC(=O)CCNC(=O)OCC1c2ccccc2-c2ccccc21)	Gadd45β/MKK7 interaction (Homo sapiens)	% Inhibition of Gadd45β-MKK7 binding	44%

Read the next record carefully.
In: Provide % Inhibition of Gadd45β-MKK7 binding, recorded with Gadd45β/MKK7 interaction (Homo sapiens), of Fmoc(βAla)2-YDHP-NH2 ({Fmoc-βAla-βAla}-YDHP-NH2; SMILES NC(=O)[C@@H]1CCCN1C(=O)[C@H](Cc1c[nH]cn1)NC(=O)[C@H](CC(=O)O)NC(=O)[C@H](Cc1ccc(O)cc1)NC(=O)CCNC(=O)CCNC(=O)OCC1c2ccccc2-c2ccccc21)
Out: 16%
